I'd be grateful if you could share measured voltage sensitivity (ΔF/F per 100 mV) for these entries.
System: HEK293T cells
Assay: Simultaneous whole-cell patch clamp electrophysiology and fluorescence in HEK cells (brightness, voltage sensitivity, speed)
Format: cell-based
Conditions: HEK cells
// return numeric value only (unit: %, not printed)

Qu. Given the molecule QuasAr2: Archaerhodopsin 3 variant with mutations P60S, T80S, D95Q, D106H, F161V; genetically encoded voltage indicator (protein) MDPIALQAGYDLLGDGRPETLWLGIGTLLMLIGTFYFLVRGWGVTDKDAREYYAVTILVSGIASAAYLSMFFGIGLTEVSVGGEMLDIYYARYAQWLFTTPLLLLHLALLAKVDRVTIGTLVGVDALMIVTGLIGALSHTAIARYSWWLFSTICMIVVLYVLATSLRSAAKERGPEVASTFNTLTALVLVLWTAYPILWIIGTEGAGVVGLGIETLLFMVLDVTAKVGFGFILLRSRAILGDTEAPEPSAGADVSAAD , what is its reported voltage sensitivity (ΔF/F per 100 mV)?
Ans. 90

Qu. Same for QuasAr1: Archaerhodopsin 3 variant with mutations P60S, T80S, D95H, D106H, F161V; genetically encoded voltage indicator (protein) MDPIALQAGYDLLGDGRPETLWLGIGTLLMLIGTFYFLVRGWGVTDKDAREYYAVTILVSGIASAAYLSMFFGIGLTEVSVGGEMLDIYYARYAHWLFTTPLLLLHLALLAKVDRVTIGTLVGVDALMIVTGLIGALSHTAIARYSWWLFSTICMIVVLYVLATSLRSAAKERGPEVASTFNTLTALVLVLWTAYPILWIIGTEGAGVVGLGIETLLFMVLDVTAKVGFGFILLRSRAILGDTEAPEPSAGADVSAAD
Ans. 32

Qu. Same for Arch(WT): wild-type Archaerhodopsin 3, light-driven proton pump from Halobacterium sodomense (protein, Halobacterium sodomense, wild-type Archaerhodopsin 3, light-driven proton pump from Halobacterium sodomense) MDPIALQAGYDLLGDGRPETLWLGIGTLLMLIGTFYFLVRGWGVTDKDAREYYAVTILVPGIASAAYLSMFFGIGLTEVTVGGEMLDIYYARYADWLFTTPLLLLDLALLAKVDRVTIGTLVGVDALMIVTGLIGALSHTAIARYSWWLFSTICMIVVLYFLATSLRSAAKERGPEVASTFNTLTALVLVLWTAYPILWIIGTEGAGVVGLGIETLLFMVLDVTAKVGFGFILLRSRAILGDTEAPEPSAGADVSAAD
Ans. 40
